Tested on: MDA-MB-468 breast
protocol.summary: NCI tumour cell line growth inhibition, 48 h; in the data active = GI50 below about 0.43 µM; inactive = the rest
// one of active, inactive, no free text

{"chemical.string": "Fc1ccc(-c2nn3c(-c4cc(C(F)(F)F)cc(C(F)(F)F)c4)nnc3s2)cc1", "cat": "inactive"}
{"chemical.string": "Cc1ccc(/C=C/C(=N/N=C(N)N)c2ccccc2)cc1", "cat": "inactive"}
{"chemical.string": "CNc1cc2nc3cc(NC)c(C)cc3cc2cc1C", "cat": "active"}

# fetch the recorded call for CCCCCCCCCCC/C=C\C[C@H](O)C/C=C1/C(=O)C=C[C@@H]1C/C=C\CCCC(=O)OC here
inactive

Entry Nc1nn2c(-c3cc4cc(Br)ccc4oc3=O)ccnc2c1N=Nc1ccccc1 : call = ?
inactive

Status in this test for Cc1ccc2nc3c(nc2c1)c1cc(I)ccc1n3CCN(C)C ?
inactive
